Target: human VR1 (Homo sapiens, UniProt Q8NER1)
Sequence (Q8NER1 whole entry): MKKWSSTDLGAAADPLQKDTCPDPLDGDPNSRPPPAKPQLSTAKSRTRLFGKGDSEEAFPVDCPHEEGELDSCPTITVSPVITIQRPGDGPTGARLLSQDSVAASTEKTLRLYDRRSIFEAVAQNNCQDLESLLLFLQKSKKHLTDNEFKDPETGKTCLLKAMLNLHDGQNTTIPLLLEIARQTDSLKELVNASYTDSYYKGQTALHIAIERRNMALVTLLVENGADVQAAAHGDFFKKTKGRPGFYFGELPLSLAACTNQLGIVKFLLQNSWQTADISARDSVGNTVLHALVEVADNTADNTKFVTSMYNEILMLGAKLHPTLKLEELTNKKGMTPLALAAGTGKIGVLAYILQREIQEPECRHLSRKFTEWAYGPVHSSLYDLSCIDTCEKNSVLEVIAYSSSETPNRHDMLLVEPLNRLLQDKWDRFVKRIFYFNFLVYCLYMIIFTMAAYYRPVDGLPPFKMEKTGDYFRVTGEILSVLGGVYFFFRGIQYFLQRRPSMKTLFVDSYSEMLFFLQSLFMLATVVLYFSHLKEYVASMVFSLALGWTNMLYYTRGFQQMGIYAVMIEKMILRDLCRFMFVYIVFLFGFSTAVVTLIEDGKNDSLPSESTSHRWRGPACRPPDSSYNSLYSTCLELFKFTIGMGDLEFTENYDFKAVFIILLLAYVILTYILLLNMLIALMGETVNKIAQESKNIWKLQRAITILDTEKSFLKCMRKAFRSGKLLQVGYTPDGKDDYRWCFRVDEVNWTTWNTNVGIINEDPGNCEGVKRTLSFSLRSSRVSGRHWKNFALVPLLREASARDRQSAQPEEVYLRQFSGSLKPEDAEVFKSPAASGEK
Assay: Acid stimulation assay (acid-induced intracellular calcium change, FDSS 6000)
Type: cell-based
Conditions: final assay buffer pH5.8, 15 min pre-incubation, read-out: IC50 (nM) Low pH
endpoint.label: IC50 (nM)

Reference set (2 entries):
| molecule | IC50 / nM |
| --- | --- |
| COC1CCN(c2ccc3cc(C(=O)N[C@H](C)c4cc(C)c(NS(C)(=O)=O)cc4F)ccc3n2)CC1 [Example 107] | 337 |
| Cc1cc([C@@H](C)NC(=O)c2ccc3nc(C(F)(F)F)cc(N4CC[C@H](O)C4)c3c2)c(F)cc1NS(C)(=O)=O [Example 91] | 366 |

a. Cc1cc([C@@H](C)NC(=O)c2cnc3cc(C(F)(F)F)ccc3c2)c(F)cc1NS(C)(=O)=O [Example 43]
b. Cc1cc([C@@H](C)NC(=O)c2ccc3nc(C(F)(F)F)ccc3c2)c(F)cc1NS(C)(=O)=O [Example 32]
c. Cc1nc([C@@H](C)NC(=O)c2ccc3cc(C(C)(C)C)ccc3c2)ccc1NS(C)(=O)=O [Example 2]
Put the items in order so that reported IC50 rises from first to last. Present the labels in the sequence the task asks for.
c, b, a
(c: 4 nM, b: 6 nM, a: 30 nM)

A. CCOC(=O)N1CCN(c2nc(C(F)(F)F)nc3ccc(C(=O)N[C@H](C)c4cc(C)c(NS(C)(=O)=O)cc4F)cc23)CC1 [Example 96]
B. Cc1cc([C@@H](C)NC(=O)c2ccc3nc(C(F)(F)F)cc(N4CCC(CO)CC4)c3c2)c(F)cc1NS(C)(=O)=O [Example 99]
Name the one with the greater IC50 value, either A or B as given. Write down the label attached to your selection.
B
